- measurement.target: SCD-1 (Homo sapiens, UniProt O00767)
- Construct: 50 μg of protein from a HepG2 cell P2 pellet; endogenous in cells; host or cells: HepG2 cells (P2 pellet)
- Sequence (O00767 whole entry): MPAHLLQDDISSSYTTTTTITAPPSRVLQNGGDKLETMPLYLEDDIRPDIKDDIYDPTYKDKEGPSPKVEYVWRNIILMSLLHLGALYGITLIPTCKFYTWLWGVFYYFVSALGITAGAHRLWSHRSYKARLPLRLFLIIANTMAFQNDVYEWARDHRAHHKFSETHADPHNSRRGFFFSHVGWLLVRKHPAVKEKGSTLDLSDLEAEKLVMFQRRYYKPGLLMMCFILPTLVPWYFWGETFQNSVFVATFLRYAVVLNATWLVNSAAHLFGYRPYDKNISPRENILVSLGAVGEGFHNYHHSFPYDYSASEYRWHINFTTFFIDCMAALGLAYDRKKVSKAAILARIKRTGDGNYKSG
- method: Stearoyl-CoA desaturase assay (HepG2 cell P2 pellet)
- Assay type: biochemical
- recorded.conditions: Table 1, compounds of formula (Ia); protein from HepG2 cell P2 pellet, 20 μM stearoyl-CoA, 15 min at 25° C.; read-out: Ave IC50
IC50 values, listed per item

compound: CC(=O)NCC(=O)N1CCC2(CC1)CCN(Cc1cccc(Cl)c1)c1ccccc1O2 [Compound 26]
measurement.target: SCD-1 (Homo sapiens, UniProt O00767)
IC50: 0.5 to 10 µM
--
compound: CCc1ccc(CN2CCC3(CCN(C(=O)CNC(=O)CC4CC4)CC3)Oc3ccccc32)cc1 [Compound 7]
measurement.target: SCD-1 (Homo sapiens, UniProt O00767)
IC50: 0.05 to 0.499 µM
--
compound: CC(=O)NCC(=O)N1CCC2(CC1)CCN(Cc1ccc(Br)cc1)c1ccccc1O2 [Compound 40]
measurement.target: SCD-1 (Homo sapiens, UniProt O00767)
IC50: 0.5 to 10 µM
--
compound: CC(=O)NCC(=O)N1CCC2(CC1)CCN(Cc1cccc(OC(F)(F)F)c1)c1ccccc1O2 [Compound 36]
measurement.target: SCD-1 (Homo sapiens, UniProt O00767)
IC50: 0.5 to 10 µM
--
compound: CC(=O)NCC(=O)N1CCC2(CC1)CCN(Cc1ccc(C(C)(C)C)cc1)c1cccc(Cl)c1O2 [Compound 15]
measurement.target: SCD-1 (Homo sapiens, UniProt O00767)
IC50: 0.5 to 10 µM
--
compound: CC(=O)NCC(=O)N1CCC2(CC1)CCN(Cc1ccccc1)c1ccccc1O2 [Compound 30]
measurement.target: SCD-1 (Homo sapiens, UniProt O00767)
IC50: 0.5 to 10 µM
--
compound: CC(=O)NCC(=O)N1CCC2(CC1)CCN(Cc1ccccc1Br)c1ccccc1O2 [Compound 37]
measurement.target: SCD-1 (Homo sapiens, UniProt O00767)
IC50: 0.5 to 10 µM
--
compound: CC(=O)NCC(=O)N1CCC2(CC1)CCN(Cc1ccccc1Cl)c1ccccc1O2 [Compound 28]
measurement.target: SCD-1 (Homo sapiens, UniProt O00767)
IC50: 0.5 to 10 µM
--
compound: CC(=O)NCC(=O)N1CCC2(CC1)CCN(Cc1ccc(Br)s1)c1ccccc1O2 [Compound 34]
measurement.target: SCD-1 (Homo sapiens, UniProt O00767)
IC50: 0.5 to 10 µM
--
compound: CC(=O)NCC(=O)N1CCC2(CC1)CCN(Cc1ccc(OC(F)(F)F)cc1)c1ccccc1O2 [Compound 22]
measurement.target: SCD-1 (Homo sapiens, UniProt O00767)
IC50: 0.5 to 10 µM
--
compound: CC(=O)NCC(=O)N1CCC2(CC1)CCN(Cc1ccccc1F)c1ccccc1O2 [Compound 19]
measurement.target: SCD-1 (Homo sapiens, UniProt O00767)
IC50: > 10 µM
--
compound: CCc1ccc(CN2CCC3(CCN(C(=O)[C@@H](C)NC(C)=O)CC3)Oc3ccccc32)cc1 [Compound 4]
measurement.target: SCD-1 (Homo sapiens, UniProt O00767)
IC50: 0.5 to 10 µM
--
compound: CCc1ccc(CN2CCC3(CCN(C(=O)CNC(=O)CCN(C)C)CC3)Oc3ccccc32)cc1 [Compound 9]
measurement.target: SCD-1 (Homo sapiens, UniProt O00767)
IC50: > 10 µM
--
compound: COC(=O)c1cccc(CN2CCC3(CCN(C(=O)CNC(C)=O)CC3)Oc3ccccc32)c1 [Compound 25]
measurement.target: SCD-1 (Homo sapiens, UniProt O00767)
IC50: 0.5 to 10 µM
--
compound: CCc1ccc(CN2CCC3(CCN(C(=O)CNC(C)=O)CC3)Oc3c(F)cccc32)cc1 [Compound 47]
measurement.target: SCD-1 (Homo sapiens, UniProt O00767)
IC50: 0.5 to 10 µM
--
compound: COc1ccc(CN2CCC3(CCN(C(=O)CNC(C)=O)CC3)Oc3ccccc32)cc1F [Compound 31]
measurement.target: SCD-1 (Homo sapiens, UniProt O00767)
IC50: 0.5 to 10 µM
--
compound: CC(=O)NCC(=O)N1CCC2(CC1)CCN(Cc1ccc(Cl)s1)c1ccccc1O2 [Compound 33]
measurement.target: SCD-1 (Homo sapiens, UniProt O00767)
IC50: 0.5 to 10 µM

The measurements presented in this section are drawn from patent US20120220567A1.
